# target-under-test: Nav1.3 sodium channel (human SCN3A gene) (Homo sapiens)
# Sequence (Q9NY46 whole entry): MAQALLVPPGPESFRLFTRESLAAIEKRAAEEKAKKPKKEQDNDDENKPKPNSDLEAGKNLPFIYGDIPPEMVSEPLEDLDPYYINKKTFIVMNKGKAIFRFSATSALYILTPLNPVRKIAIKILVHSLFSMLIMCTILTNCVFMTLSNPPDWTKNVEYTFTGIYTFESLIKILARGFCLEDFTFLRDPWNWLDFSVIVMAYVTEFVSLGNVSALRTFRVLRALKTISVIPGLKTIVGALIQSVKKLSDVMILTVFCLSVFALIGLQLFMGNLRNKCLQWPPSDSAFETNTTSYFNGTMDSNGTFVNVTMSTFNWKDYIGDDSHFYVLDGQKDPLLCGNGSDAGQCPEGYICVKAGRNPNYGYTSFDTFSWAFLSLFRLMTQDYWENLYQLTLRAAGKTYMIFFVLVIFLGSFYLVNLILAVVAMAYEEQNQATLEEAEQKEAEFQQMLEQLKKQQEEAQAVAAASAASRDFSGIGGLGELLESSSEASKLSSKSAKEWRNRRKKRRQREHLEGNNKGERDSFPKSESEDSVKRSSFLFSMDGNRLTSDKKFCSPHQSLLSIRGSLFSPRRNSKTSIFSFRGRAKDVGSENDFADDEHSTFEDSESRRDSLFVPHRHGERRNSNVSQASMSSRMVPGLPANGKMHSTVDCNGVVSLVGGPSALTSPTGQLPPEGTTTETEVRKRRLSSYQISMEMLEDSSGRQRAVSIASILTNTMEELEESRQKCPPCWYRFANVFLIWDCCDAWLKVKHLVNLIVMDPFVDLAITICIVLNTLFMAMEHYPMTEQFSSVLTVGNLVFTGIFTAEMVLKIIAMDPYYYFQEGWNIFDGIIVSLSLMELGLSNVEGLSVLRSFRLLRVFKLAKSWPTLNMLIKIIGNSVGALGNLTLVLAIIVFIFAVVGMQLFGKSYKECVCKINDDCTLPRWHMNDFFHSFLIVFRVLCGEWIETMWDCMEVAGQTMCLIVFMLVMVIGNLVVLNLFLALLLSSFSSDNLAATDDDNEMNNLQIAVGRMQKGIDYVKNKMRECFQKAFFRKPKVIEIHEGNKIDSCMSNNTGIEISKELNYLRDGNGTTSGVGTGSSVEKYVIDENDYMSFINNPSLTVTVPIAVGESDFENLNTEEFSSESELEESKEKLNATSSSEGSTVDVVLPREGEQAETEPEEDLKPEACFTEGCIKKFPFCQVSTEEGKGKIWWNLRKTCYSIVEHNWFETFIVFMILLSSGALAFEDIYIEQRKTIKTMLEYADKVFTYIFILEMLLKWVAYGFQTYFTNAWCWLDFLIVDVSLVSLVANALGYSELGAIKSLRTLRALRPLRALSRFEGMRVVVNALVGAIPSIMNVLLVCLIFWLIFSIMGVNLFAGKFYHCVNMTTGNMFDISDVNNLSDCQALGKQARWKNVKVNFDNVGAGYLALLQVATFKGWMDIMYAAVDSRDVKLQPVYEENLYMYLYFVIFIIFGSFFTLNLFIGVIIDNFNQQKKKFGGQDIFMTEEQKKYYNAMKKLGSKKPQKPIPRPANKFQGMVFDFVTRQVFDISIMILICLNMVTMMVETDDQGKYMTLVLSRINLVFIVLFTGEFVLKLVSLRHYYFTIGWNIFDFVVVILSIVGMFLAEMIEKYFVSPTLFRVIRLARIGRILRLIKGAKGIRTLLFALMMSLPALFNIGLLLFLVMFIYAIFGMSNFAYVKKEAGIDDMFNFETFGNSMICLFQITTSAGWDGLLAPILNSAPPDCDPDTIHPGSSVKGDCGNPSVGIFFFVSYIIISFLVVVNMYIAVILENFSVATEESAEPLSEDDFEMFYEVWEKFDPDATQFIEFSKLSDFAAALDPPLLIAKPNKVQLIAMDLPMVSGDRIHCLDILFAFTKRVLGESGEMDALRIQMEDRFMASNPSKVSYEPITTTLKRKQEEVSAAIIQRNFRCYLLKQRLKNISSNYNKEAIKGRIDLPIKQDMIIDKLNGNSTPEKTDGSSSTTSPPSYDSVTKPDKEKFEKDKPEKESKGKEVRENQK
# assay-summary: cell-based
# Parameters: host or cells: CHO
# condition-set: read-out: IC50 Nav1.3 ion channel inhibition, TP1
readout: IC50 (µM)
Give the value in µM but do not write µM after it.

## Task State the recorded IC50 for this entry: NC1=N[C@H](O)[C@H]2[C@H]3O[C@]4(O)O[C@@H]([C@@H](O)[C@@]2(N1)[C@@H]4O)[C@]3(O)CO [TTX, Tetrodotoxin, reference compound]
## Result 0.033

====

Listed substances paired with reported Activity of Kv1.3 with peptide, expressed as a percentage of the reference compound
# target-under-test: Kv1.3 (Homo sapiens, UniProt P22001)
# Construct: host or cells: HEK293 or CHO
# Sequence (P22001 whole entry): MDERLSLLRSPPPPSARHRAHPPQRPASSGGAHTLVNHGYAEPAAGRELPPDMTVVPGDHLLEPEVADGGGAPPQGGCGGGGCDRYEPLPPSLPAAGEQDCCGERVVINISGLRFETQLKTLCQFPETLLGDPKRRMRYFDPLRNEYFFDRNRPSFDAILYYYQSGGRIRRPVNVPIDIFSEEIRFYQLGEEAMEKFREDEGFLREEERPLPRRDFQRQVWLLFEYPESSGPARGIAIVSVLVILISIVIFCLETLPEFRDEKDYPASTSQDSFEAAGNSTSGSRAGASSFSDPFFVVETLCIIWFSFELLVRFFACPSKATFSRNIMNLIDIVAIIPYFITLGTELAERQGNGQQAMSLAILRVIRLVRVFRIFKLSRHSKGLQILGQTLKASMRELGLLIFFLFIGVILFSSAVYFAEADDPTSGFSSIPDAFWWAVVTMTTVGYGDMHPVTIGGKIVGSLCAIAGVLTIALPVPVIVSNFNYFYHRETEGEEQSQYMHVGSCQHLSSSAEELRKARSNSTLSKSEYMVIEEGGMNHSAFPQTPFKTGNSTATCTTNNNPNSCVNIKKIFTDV
# assay-summary: cell-based
# Type: cell-based
# condition-set: peptide at 0.2 μM; 100% = no change, <100% = inhibition
A bare number is not enough; add the unit after it.

{"substance": "29 (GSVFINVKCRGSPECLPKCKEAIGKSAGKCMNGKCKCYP) [compound 29]", "result-value": "21%"}
{"substance": "3 (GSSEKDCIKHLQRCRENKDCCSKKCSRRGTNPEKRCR) [compound 3]", "result-value": "92%"}
{"substance": "14 (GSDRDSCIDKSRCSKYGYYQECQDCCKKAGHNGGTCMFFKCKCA) [compound 14]", "result-value": "87%"}
{"substance": "17 (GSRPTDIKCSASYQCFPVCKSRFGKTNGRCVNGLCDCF) [compound 17]", "result-value": "96%"}

Shifting focus to the substance that follows.
## Task Recorded Activity of Kv1.3 with peptide, expressed as a percentage of the reference compound for 9 (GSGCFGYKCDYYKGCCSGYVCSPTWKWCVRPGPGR) [compound 9] with Kv1.3 (Homo sapiens, UniProt P22001), please?
## Result 107%

====

Activity of Nav1.7 with peptide (percentage of the reference compound) reference
# target-under-test: Nav1.7 (Homo sapiens, UniProt Q15858)
# Construct: host or cells: HEK293 or CHO
# Sequence (Q15858 whole entry): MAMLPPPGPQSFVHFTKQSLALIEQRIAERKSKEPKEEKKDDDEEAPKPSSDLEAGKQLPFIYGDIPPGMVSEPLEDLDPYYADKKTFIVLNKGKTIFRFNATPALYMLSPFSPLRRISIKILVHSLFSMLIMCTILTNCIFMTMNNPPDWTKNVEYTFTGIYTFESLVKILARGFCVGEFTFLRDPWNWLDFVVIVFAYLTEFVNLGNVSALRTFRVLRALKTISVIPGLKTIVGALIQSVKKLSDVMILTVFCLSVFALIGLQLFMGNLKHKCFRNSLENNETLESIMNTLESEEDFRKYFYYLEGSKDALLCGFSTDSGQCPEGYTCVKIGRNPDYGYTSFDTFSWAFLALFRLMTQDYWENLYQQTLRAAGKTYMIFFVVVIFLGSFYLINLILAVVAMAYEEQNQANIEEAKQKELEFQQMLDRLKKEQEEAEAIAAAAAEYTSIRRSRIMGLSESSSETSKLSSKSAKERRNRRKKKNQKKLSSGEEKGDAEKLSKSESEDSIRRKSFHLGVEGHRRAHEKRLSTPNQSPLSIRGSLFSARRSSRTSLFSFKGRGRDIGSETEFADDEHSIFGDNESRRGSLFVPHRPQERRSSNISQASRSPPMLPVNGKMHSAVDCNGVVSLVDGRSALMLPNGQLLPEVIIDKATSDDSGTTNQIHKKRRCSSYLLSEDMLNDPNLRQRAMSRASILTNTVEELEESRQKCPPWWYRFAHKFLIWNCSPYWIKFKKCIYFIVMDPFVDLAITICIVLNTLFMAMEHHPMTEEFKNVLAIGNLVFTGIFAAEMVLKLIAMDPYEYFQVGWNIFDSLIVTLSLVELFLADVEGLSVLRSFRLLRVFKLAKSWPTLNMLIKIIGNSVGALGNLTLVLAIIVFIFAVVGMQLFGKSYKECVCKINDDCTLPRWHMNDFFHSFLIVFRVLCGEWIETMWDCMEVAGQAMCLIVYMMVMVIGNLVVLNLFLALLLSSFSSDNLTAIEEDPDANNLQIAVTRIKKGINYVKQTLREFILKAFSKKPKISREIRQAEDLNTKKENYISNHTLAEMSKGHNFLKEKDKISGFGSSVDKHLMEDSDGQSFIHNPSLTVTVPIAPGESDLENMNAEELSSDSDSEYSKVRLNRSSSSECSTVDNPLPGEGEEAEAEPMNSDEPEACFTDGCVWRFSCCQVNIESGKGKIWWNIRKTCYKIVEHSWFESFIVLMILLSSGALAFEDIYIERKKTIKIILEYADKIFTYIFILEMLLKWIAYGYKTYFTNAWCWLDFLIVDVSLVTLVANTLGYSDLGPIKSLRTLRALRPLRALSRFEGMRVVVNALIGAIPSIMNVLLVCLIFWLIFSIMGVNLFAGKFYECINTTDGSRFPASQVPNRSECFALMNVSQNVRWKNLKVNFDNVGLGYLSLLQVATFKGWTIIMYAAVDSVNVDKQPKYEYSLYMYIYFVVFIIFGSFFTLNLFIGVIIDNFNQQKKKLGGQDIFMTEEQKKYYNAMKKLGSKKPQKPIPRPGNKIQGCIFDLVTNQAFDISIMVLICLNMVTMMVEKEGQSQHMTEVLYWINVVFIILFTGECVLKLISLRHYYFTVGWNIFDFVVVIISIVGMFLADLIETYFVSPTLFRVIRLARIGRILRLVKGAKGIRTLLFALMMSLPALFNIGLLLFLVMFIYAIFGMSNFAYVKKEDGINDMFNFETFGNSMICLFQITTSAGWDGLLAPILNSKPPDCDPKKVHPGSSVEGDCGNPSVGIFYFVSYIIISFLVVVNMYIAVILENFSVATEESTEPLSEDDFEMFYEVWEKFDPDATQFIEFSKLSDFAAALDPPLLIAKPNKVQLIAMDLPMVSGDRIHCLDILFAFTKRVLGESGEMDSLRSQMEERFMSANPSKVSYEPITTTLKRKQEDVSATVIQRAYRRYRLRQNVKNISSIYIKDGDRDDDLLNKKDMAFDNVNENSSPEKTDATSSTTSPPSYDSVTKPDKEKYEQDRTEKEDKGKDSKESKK
# assay-summary: cell-based
# Type: cell-based
# condition-set: peptide at 20 μM; second of two Nav1.7 columns (probably TP2); 100% = no change
Number only, in %; omit the unit.

{"substance": "22 (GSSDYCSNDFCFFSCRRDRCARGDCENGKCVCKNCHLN) [compound 22]", "result-value": 87}
{"substance": "36 (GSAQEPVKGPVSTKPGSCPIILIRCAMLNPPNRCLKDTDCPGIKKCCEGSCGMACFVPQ) [compound 36]", "result-value": 71}
{"substance": "25 (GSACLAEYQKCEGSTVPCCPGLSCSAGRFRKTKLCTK) [compound 25]", "result-value": 83}

## Task May I ask what Activity of Nav1.7 with peptide (percentage of the reference compound) has been recorded for 14 (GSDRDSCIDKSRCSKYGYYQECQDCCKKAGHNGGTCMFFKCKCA) [compound 14] ?
## Result 65

====

# target-under-test: Kir2.1 (Homo sapiens)
# Construct: host or cells: HEK293 or CHO
# Sequence (P63252 whole entry): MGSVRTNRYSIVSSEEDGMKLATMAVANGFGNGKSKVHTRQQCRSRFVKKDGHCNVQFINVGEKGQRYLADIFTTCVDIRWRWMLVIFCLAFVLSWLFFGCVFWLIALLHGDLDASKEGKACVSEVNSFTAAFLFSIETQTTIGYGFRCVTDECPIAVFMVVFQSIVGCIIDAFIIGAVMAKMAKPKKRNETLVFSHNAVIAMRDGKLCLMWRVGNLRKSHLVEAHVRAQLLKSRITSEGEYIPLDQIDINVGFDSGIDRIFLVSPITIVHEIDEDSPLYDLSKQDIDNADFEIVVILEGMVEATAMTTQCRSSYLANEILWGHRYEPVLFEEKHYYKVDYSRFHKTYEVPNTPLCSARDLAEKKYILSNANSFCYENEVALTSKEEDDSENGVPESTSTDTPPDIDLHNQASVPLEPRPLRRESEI
# assay-summary: Ion channel panel (IonWorks Barracuda): Kir2.1
# Assay type: cell-based
# condition-set: peptide at 20 μM; 100% = no change, <100% = inhibition
// reported Activity of Kir2.1 with peptide (percentage of the reference compound) for each item listed
Number only, in %; omit the unit.

{"substance": "38 (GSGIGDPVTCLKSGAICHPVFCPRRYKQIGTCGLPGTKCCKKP) [compound 38]", "result-unit": "%", "result-value": 126}

## Task Value lookup for Activity of Kir2.1 with peptide (percentage of the reference compound); key = 18 (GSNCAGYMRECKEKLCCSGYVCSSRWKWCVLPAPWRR) [compound 18]
## Result 93

## Task # input substance: 5 (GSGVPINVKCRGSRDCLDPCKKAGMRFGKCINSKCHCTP) [compound 5] ; wanted: its Activity of Kir2.1 with peptide (percentage of the reference compound)
## Result 86

## Task Quick one: Activity of Kir2.1 with peptide (percentage of the reference compound) for 21 (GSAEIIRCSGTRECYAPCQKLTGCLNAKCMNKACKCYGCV) [compound 21] ?
## Result 101

## Task Data request, read-out Activity of Kir2.1 with peptide (percentage of the reference compound), for 25 (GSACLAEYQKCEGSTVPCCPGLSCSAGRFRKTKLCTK) [compound 25]
## Result 98

## Task Tell me the measured Activity of Kir2.1 with peptide (percentage of the reference compound) of 36 (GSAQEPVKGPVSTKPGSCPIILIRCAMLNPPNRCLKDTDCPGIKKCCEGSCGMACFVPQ) [compound 36] , please.
## Result 91

## Task Name the reported Activity of Kir2.1 with peptide (percentage of the reference compound) value associated with the substance 11 (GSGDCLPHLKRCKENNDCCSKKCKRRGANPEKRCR) [compound 11]
## Result 97
